protocol-summary: Solubility experiment in different media, thermodynamic solubility at 37°C
Format: physicochemical
applied-conditions: medium of pH 3, aqueous buffer, thermodynamic from solid; medium pH 3, 37° C., 24 hours, thermodynamic solubility

# molecule, solubility at 24 h (µg/mL)
measured = [
    ("CCS(=O)(=O)O.C[C@H](Nc1ccc2c(c1)OCCn1cc(N3C(=O)SC[C@H]3C(F)F)nc1-2)C(N)=O [crystal form A of ethanesulfonate salt]", 268),
]

* * *

protocol-summary: Solubility experiment in different media, thermodynamic solubility at 37°C
Format: physicochemical
applied-conditions: thermodynamic from solid; medium water, 37° C., 24 hours, thermodynamic solubility
assay-readout: solubility at 24 h

# molecule, result
rows = [
    ("CCS(=O)(=O)O.C[C@H](Nc1ccc2c(c1)OCCn1cc(N3C(=O)SC[C@H]3C(F)F)nc1-2)C(N)=O [crystal form A of ethanesulfonate salt]", "608 µg/mL"),
]
